System: C. difficile NR-13432 (isolate 6)
experiment-notes: MIC against C. difficile NR-13432 (isolate 6)
Assay type: cell-based
conditions: Clostridioides difficile; read-out: MIC C. difficile NR-13432 (isolate 6)
Method: Bacteria were cultured in cation-adjusted Mueller Hinton Broth (for strains in Tables 1-3) or Brain Heart Infusion broth (for Enterococcus faecium) or Tryptic Soy Broth (all other bacteria) in a 96-well plate at 37° C. for at least 20 hours. The MIC was classified as the lowest concentration where no visual growth of bacteria was observed. The minimum bactericidal concentration (MBC) was tested by spotting 4 μL from wells with no growth onto Tryptic Soy Agar (TSA) plates. […]
Entries annotated with measured MIC
Value and unit, in that order.

compound	val
O=C(Nc1nnc(-c2cccs2)o1)c1ccc(S(F)(F)(F)(F)F)cc1 [HSGN-144]	0.015 µg/mL
O=C(Nc1nnc(-c2cccs2)o1)c1ccc(OC(F)(F)F)cc1 [HSGN-145]	0.5 µg/mL
O=C(Nc1nnc(-c2cccc(Br)c2)o1)c1ccc(SC(F)(F)F)cc1 [HSGN-217]	0.06 µg/mL
O=C(Nc1nnc(-c2ccc(Cl)s2)o1)c1ccc(SC(F)(F)F)cc1 [HSGN-210]	0.015 µg/mL
O=C(Nc1nnc(-c2cccs2)o1)c1ccc(SC(F)(F)F)cc1 [HSGN-148]	0.5 µg/mL

Entry O=C(Nc1nnc(-c2cccc(F)c2)o1)c1ccc(SC(F)(F)F)cc1 [HSGN-205] — recorded MIC = 0.03 µg/mL

Entry O=C(Nc1nnc(-c2ccc(Cl)s2)o1)c1ccc(OC(F)(F)F)cc1 [HSGN-238] — recorded MIC = 0.03 µg/mL

Entry O=C(Nc1nnc(-c2cccc(Cl)c2)o1)c1ccc(SC(F)(F)F)cc1 [HSGN-204] — recorded MIC = 0.03 µg/mL

Entry O=C(Nc1nnc(-c2cccc(F)c2)o1)c1ccc(OC(F)(F)F)cc1 [HSGN-237] — recorded MIC = 0.06 µg/mL

---

Test system: C. difficile NR-13432 (isolate 6)
experiment-notes: MIC against C. difficile NR-13432 (isolate 6)
Format: cell-based
conditions: Clostridioides difficile; read-out: MIC C. difficile NR-13432 (isolate 6)
readout-label: MIC (µg/mL)
Could you give me the number in µg/mL? Just the number is fine.

Reference set, count: 2
compound	readout-label	val
O=C(Nc1nnc(-c2cc(Cl)cc(Cl)c2)o1)c1ccc(SC(F)(F)F)cc1 [HSGN-218]	MIC	0.03
O=C(Nc1nnc(-c2ccc(F)cc2F)o1)c1ccc(SC(F)(F)F)cc1 [HSGN-219]	MIC	0.03

Now for a further compound.
Entry O=C(Nc1nnc(-c2ccc(C(F)(F)F)cc2)o1)c1ccc(SC(F)(F)F)cc1 [HSGN-203] — recorded MIC = 0.125

---

System: C. difficile NR-32883 (P2)
experiment-notes: MIC against C. difficile NR-32883 (P2)
Assay type: cell-based
conditions: Clostridioides difficile; read-out: MIC C. difficile NR-32883 (P2)
Entries annotated with measured MIC
Could you give me the number in ng/mL? Just the number is fine.

Reference set, count: 8
molecule	val
O=C(Nc1nnc(-c2ccc(C(F)(F)F)cc2)o1)c1ccc(SC(F)(F)F)cc1 [HSGN-203]	60
O=C(Nc1nnc(-c2cccc(Br)c2)o1)c1ccc(SC(F)(F)F)cc1 [HSGN-217]	60
O=C(Nc1nnc(-c2cccc(F)c2)o1)c1ccc(SC(F)(F)F)cc1 [HSGN-205]	3
O=C(Nc1nnc(-c2ccc(Cl)s2)o1)c1ccc(SC(F)(F)F)cc1 [HSGN-210]	3
O=C(Nc1nnc(-c2cccs2)o1)c1ccc(S(F)(F)(F)(F)F)cc1 [HSGN-144]	3
O=C(Nc1nnc(-c2cc(Cl)cc(Cl)c2)o1)c1ccc(SC(F)(F)F)cc1 [HSGN-218]	7
O=C(Nc1nnc(-c2cccs2)o1)c1ccc(OC(F)(F)F)cc1 [HSGN-145]	1000
O=C(Nc1nnc(-c2cccs2)o1)c1ccc(SC(F)(F)F)cc1 [HSGN-148]	500

Entry O=C(Nc1nnc(-c2cccc(F)c2)o1)c1ccc(OC(F)(F)F)cc1 [HSGN-237] — recorded MIC = 30

Entry O=C(Nc1nnc(-c2ccc(Cl)s2)o1)c1ccc(OC(F)(F)F)cc1 [HSGN-238] — recorded MIC = 7

Entry O=C(Nc1nnc(-c2ccc(F)cc2F)o1)c1ccc(SC(F)(F)F)cc1 [HSGN-219] — recorded MIC = 3

Entry O=C(Nc1nnc(-c2cccc(Cl)c2)o1)c1ccc(SC(F)(F)F)cc1 [HSGN-204] — recorded MIC = 3
